I'd appreciate it if you could supply kcat values for the items below.
Substrate: Nc1nc2c(ncn2[C@@H]2O[C@H](COP(=O)(O)OP(=O)(O)O[C@H]3O[C@H](CO)[C@@H](O)[C@H](O)[C@@H]3O)[C@@H](O)[C@H]2O)c(=O)[nH]1
METHOD NOTES: phosphate release
Type: biochemical, Escherichia coli
ASSAY SETUP: Mg2+, pH 8.5, 37 °C
Answers are plain numbers, in s⁻¹.

PROTEIN	kcat / s⁻¹
GDPMK (Escherichia coli K-12; E149A) (protein) MTQQITLIKDKILSDNYFTLHNITYDLTRKDGEVIRHKREVYDRGNGATILLYNTKKKTVVLIRQFRVATWVNGNESGQLIESCAGLLDNDEPEVCIRKEAIEETGYEVGEVRKLFELYMSPGGVTELIHFFIAEYSDNQRANAGGGVADEDIEVLELPFSQALEMIKTGEIRDGKTVLLLNYLQTSHLMD	80.6

Please give kcat for each item listed below.
1. GDPMK (Escherichia coli K-12; E151A) (protein) MTQQITLIKDKILSDNYFTLHNITYDLTRKDGEVIRHKREVYDRGNGATILLYNTKKKTVVLIRQFRVATWVNGNESGQLIESCAGLLDNDEPEVCIRKEAIEETGYEVGEVRKLFELYMSPGGVTELIHFFIAEYSDNQRANAGGGVEDADIEVLELPFSQALEMIKTGEIRDGKTVLLLNYLQTSHLMD
2. GDPMK (Escherichia coli K-12; K176A) (protein) MTQQITLIKDKILSDNYFTLHNITYDLTRKDGEVIRHKREVYDRGNGATILLYNTKKKTVVLIRQFRVATWVNGNESGQLIESCAGLLDNDEPEVCIRKEAIEETGYEVGEVRKLFELYMSPGGVTELIHFFIAEYSDNQRANAGGGVEDEDIEVLELPFSQALEMIKTGEIRDGATVLLLNYLQTSHLMD
3. GDPMK (Escherichia coli K-12; R44S) (protein) MTQQITLIKDKILSDNYFTLHNITYDLTRKDGEVIRHKREVYDSGNGATILLYNTKKKTVVLIRQFRVATWVNGNESGQLIESCAGLLDNDEPEVCIRKEAIEETGYEVGEVRKLFELYMSPGGVTELIHFFIAEYSDNQRANAGGGVEDEDIEVLELPFSQALEMIKTGEIRDGKTVLLLNYLQTSHLMD

[A]
1: 21.3; 2: 0.11; 3: 1.69

[Q] I would be grateful if you could share the reported kcat for GDPMK, Nudix GDP-mannose hydrolase from E. coli (product of the gene yffH), wild type (enzyme, UniProt P37128 1-191, looked up) MTQQITLIKDKILSDNYFTLHNITYDLTRKDGEVIRHKREVYDRGNGATILLYNTKKKTVVLIRQFRVATWVNGNESGQLIESCAGLLDNDEPEVCIRKEAIEETGYEVGEVRKLFELYMSPGGVTELIHFFIAEYSDNQRANAGGGVEDEDIEVLELPFSQALEMIKTGEIRDGKTVLLLNYLQTSHLMD .
[A] 90.2
